Measured values drawn from ChEMBL document CHEMBL6074634 for this set.

Test system: SARS-CoV-2
Test: Antiviral activity against SARS CoV-2 infected in african green monkey Vero E6 cells assessed as inhibition of viral growth preincubated with cells for 1 hr followed by viral addition for 1 hr with subsequent compound washout and measured after 24 hrs of compound replacement by qRT-PCR analysis
Type: functional, organism-based
Settings: Severe acute respiratory syndrome coronavirus 2, Vero C1008
# reported log10 IC50; entries follow
Scale: log10; quantity: IC50; unit before log: µM

Observe how each entry below is paired with its result.
# compound, assayed target, log10 IC50
rows = [
    ("COc1cc2c3cc1Oc1c(OC)c(OC)cc4c1[C@H](Cc1ccc(cc1)Oc1cc(ccc1O)C[C@H]3N(C)CC2)N(C)CC4", "SARS-CoV-2", 1.16),
    ("COc1cc2c3cc1Oc1c(OC)c(OC)cc4c1[C@H](Cc1ccc(cc1)Oc1cc(ccc1C(=O)NC15CC6CC(CC(C6)C1)C5)C[C@H]3N(C)CC2)N(C)CC4", "SARS-CoV-2", 0.03),
    ("COc1cc2c3cc1Oc1c(OC)c(OC)cc4c1[C@H](Cc1ccc(cc1)Oc1cc(ccc1C(=O)Nc1ccccc1)C[C@H]3N(C)CC2)N(C)CC4", "SARS-CoV-2", 0.45),
    ("COc1cc2c3cc1Oc1c(OC)c(OC)cc4c1[C@H](Cc1ccc(cc1)Oc1cc(ccc1C(=O)Nc1ccc(C(F)(F)F)cc1)C[C@H]3N(C)CC2)N(C)CC4", "SARS-CoV-2", 0.44),
    ("COc1cc2c3cc1Oc1c(OC)c(OC)cc4c1[C@H](Cc1ccc(cc1)Oc1cc(ccc1C(N)=O)C[C@H]3N(C)CC2)N(C)CC4", "SARS-CoV-2", -0.26),
    ("COc1cc2c3cc1Oc1c(OC)c(OC)cc4c1[C@H](Cc1ccc(cc1)Oc1cc(ccc1C(C)=O)C[C@H]3N(C)CC2)N(C)CC4", "SARS-CoV-2", 0.17),
    ("COc1ccc(NC(=O)c2ccc3cc2Oc2ccc(cc2)C[C@H]2c4c(cc(OC)c(OC)c4Oc4cc5c(cc4OC)CCN(C)[C@@H]5C3)CCN2C)cc1", "SARS-CoV-2", -0.21),
    ("C=C(C)c1ccc2cc1Oc1ccc(cc1)C[C@H]1c3c(cc(OC)c(OC)c3Oc3cc4c(cc3OC)CCN(C)[C@@H]4C2)CCN1C", "SARS-CoV-2", 0.04),
]

Entry "COc1cc2c3cc1Oc1c(OC)c(OC)cc4c1[C@H](Cc1ccc(cc1)Oc1cc(ccc1C(=O)NCCOCCO)C[C@H]3N(C)CC2)N(C)CC4" , log10 IC50 reported as 0.44

Input "COc1cc2c3cc1Oc1c(OC)c(OC)cc4c1[C@H](Cc1ccc(cc1)Oc1cc(ccc1C(=O)NC1CCCC1)C[C@H]3N(C)CC2)N(C)CC4" . Output log10 IC50: 0.17

====

Test system: SARS-CoV-2
Test: Antiviral activity against SARS CoV-2 infected in african green monkey Vero E6 cells assessed as inhibition of viral growth preincubated with cells for 1 hr followed by viral addition for 1 hr with subsequent compound washout and measured after 24 hrs of compound replacement by qRT-PCR analysis
Assay type: functional, organism-based
Conditions: Severe acute respiratory syndrome coronavirus 2, Vero C1008
Field 'label' (enum: y / n). Set to y when IC50 is strictly under 900 nM; else n.

# molecule, label
data = [
    ("COc1cc2c3cc1Oc1c(OC)c(OC)cc4c1[C@H](Cc1ccc(cc1)Oc1cc(ccc1C1CC1)C[C@H]3N(C)CC2)N(C)CC4", "n"),
    ("COc1cc2c3cc1Oc1c(OC)c(OC)cc4c1[C@H](Cc1ccc(cc1)Oc1cc(ccc1C)C[C@H]3N(C)CC2)N(C)CC4", "n"),
]

Next up:
Asked: IC50 under 900 nM? Item: "COc1cc2c3cc1Oc1c(OC)c(OC)cc4c1[C@H](Cc1ccc(cc1)Oc1cc(ccc1C(=O)Nc1cccnc1)C[C@H]3N(C)CC2)N(C)CC4"
Given back: n
